Below, each of the molecules is paired with its reported IC50 value.
system: wild-type HIV-1 protease (Human immunodeficiency virus type 1 group M subtype B, UniProt P04585)
Construct: Escherichia coli expressed wild-type HIV-1 protease protein
experimentDescription: Assay for Inhibition of Microbial Expressed HIV Protease (peptide substrate cleavage, LC-MS/MS readout)
Type: biochemical
assayConditions: E. coli expressed wild-type HIV-1 protease, mean of at least two independent experiments, read-out: HIV Pr Enzyme HIV1 PR IC50
Quick reminder: number only, in nM, skip the unit.

Below: 3 molecules and their reported IC50.
- molecule: "CC(C)CCC1(c2ccccc2)NC(=N)N(Cc2ccc(C(F)(F)F)c(C(=O)N3CCC(n4c(=O)[nH]c5ccccc54)CC3)c2)C1=O (stereo not shown)"
  unitInfo: "nM"
  IC50: 11.3
- molecule: "N=C1N[C@](CCCC(F)(F)F)(c2ccc(F)cc2)C(=O)N1Cc1ccc(C(F)(F)F)c(C(=O)N2CCn3nc(C4CC4)nc3C2)c1"
  unitInfo: "nM"
  IC50: 48.1
- molecule: "N=C1N[C@](CCC2CC2)(c2ccc(F)cc2)C(=O)N1C(CCc1ccccc1)c1ccc(C(F)(F)F)c(C(=O)N2Cc3nccnc3C2)c1 (stereo partly shown)"
  unitInfo: "nM"
  IC50: 0.17

Here is the next item to consider.
Data request: Give the reported value of IC50 for this record: CC(C)CCC1(c2ccc(F)cc2)NC(=N)N(Cc2ccc(C(F)(F)F)c(C(=O)N3Cc4cncnc4C3)c2)C1=O (stereo not shown) [Compound 144]
Data returned: 3.73

Reference source for all entries: patent US20200069691A1
